All values here come from paper PMC12175168.

# k Gly ± s(k Gly), second-order rate constant values compiled below
method: Kinetic Gly-pNA chemoassay (second-order rate constant k Gly);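 further: Gly-pNA depletion followed over time by chromatographic peak area, with test compound in at least tenfold excess (pseudo-first-order), added from acetonitrile stock, at least three runs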
condition_summary: reaction with Gly-pNA, phosphate buffer 80 mM, 25 °C, nominal test compound concentration; ≥ values are minimum reactivity
quantity_kind: k Gly ± s(k Gly), second-order rate constant (L mol^–1 min^–1)

{"columns": ["compound", "unit_descriptor", "modifier_sign", "test_result"],
 "data": [
  ["O=C1OC(=O)C2C3C=CC(C3)C12 (stereo not drawn) [C5, himic anhydride]", "L mol^–1 min^–1", "=", 4126],
  ["O=C1OC2(c3ccc(O)cc3Oc3cc(O)ccc32)c2ccc(N=C=S)cc21 [B3, fluorescein isothiocyanate]", "L mol^–1 min^–1", "=", 15.1],
  ["O=C1OC(=O)c2c(Cl)c(Cl)c(Cl)c(Cl)c21 [C3, tetrachlorophthalic anhydride]", "L mol^–1 min^–1", "≥", 9816],
  ["C=CC(=O)OC [F2, methyl acrylate]", "L mol^–1 min^–1", "=", 0.108],
  ["O=C1OC(=O)c2ccccc21 [C1, phthalic anhydride]", "L mol^–1 min^–1", "≥", 22480],
  ["Cc1ccc(N=C=O)cc1N=C=O [A1, 2,4-Toluene diisocyanate]", "L mol^–1 min^–1", "≥", 33484],
  ["CC12CC=CCC1C(=O)OC2=O (stereo not drawn) [D2, methyltetrahydrophthalic anhydride]", "L mol^–1 min^–1", "=", 2051],
  ["Cc1c(N=C=O)cccc1N=C=O [A3, 2,6-toluene diisocyanate]", "L mol^–1 min^–1", "≥", 20880],
  ["O=C1C=CC(=O)O1 [C4, maleic anhydride]", "L mol^–1 min^–1", "≥", 5930]
]}
